Entry source: patent US20210032312A1

- target.system: T1, human CD8 alpha (CD8A) on primary human CD8+ T cells (human, UniProt P01732 22-235)
- T1 construct: whole, on cells; also called hCD8A
- T1 sequence (P01732 22-235): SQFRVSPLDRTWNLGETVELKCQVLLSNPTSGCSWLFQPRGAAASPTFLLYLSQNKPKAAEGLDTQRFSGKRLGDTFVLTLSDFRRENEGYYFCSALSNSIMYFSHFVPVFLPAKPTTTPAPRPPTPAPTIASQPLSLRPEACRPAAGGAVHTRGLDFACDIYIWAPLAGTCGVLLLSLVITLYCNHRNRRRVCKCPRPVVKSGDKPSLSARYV
- assay: flow cytometry, human CD8+ T cells, 0.2 uM FN3
result.type: Human T-cell Binding 0.2 uM (MFI)

Some solved entries appear below for comparison.
# binder, data.value
records = [
    ("P282DR9P1359_F11 (designed binder, FN3 domain) LPAPKNLVVSRVTEDSARLSWTAPDAAFDSFDIFYPELPIHGEAIVLTVPGSERSYDLTGLKPGTEYWVNITGVKGGDFSWPLSAIFTT", 6590),
    ("P282BR9P1357_G9 (designed binder, FN3 domain) LPAPKNLVVSRVTEDSARLSWPIASQIHSPFDSFLIQYQESEKVGEAIVLTVPGSERSYDLTGLKPGTEYTVSIYGVDVKYDIDSRPISSNPLSAIFTT", 2800),
]

(a) P282DR9P1359_C10 (designed binder, FN3 domain) LPAPKNLVVSRVTEDSARLSWTAPDAAFDSFAIVYPEWPTDGEAIVLTVPGSERSYDLTGLKPGTEYAVFIWGVKGGNQSWPLSAIFTT
(b) P282ER9P1360_C6 (designed binder, FN3 domain) LSAPKNLVVSRVTEDSARLSWTAPDAAFDSFGILYYEPVDSGEAITLPIPGSERSYDLTGLKPGTEYWVVITGVKGGAPSTPLGAIFTT
(c) P282DR9P1359_H5 (designed binder, FN3 domain) LPAPKNLVVSRVTEDSARLSWTAPDAAFDSFNIAYPEALHPGYGEAIVLTVPGSERSYDLTGLKPGTEYFVVIYGVKGGTNSEPLSAIFTT
Ranking field: Human T-cell Binding 0.2 uM (MFI); order: falling. Please respond with the labels ordered as the question requires.
b, a, c
(b: 5080 MFI, a: 2880 MFI, c: 278 MFI)
